Exercise: for every item that follows, state its recorded IA/internal.
Assay: Replacement of azide with other halide or pseudohalide anions, Sav HppD Az1 cell lysate
Format: biochemical
Settings: Sav HppD Az1 cell lysate (OD600=20), 1NF, GCMS peak area over internal standard, 24 hours

Record excerpt, results attached:
[Br-].[Na+]    2.4
N#C[O-].[Na+]    2.1
[F-].[Na+]    2.5

Looking for the measured IA/internal of N#C[S-].[Na+] , can you help?
2.7
